target: Alpha-bungarotoxin (Bungarus multicinctus); assay: compounds binding labelled alpha-BTX control protein – biochemical, small-molecule microarray, Alexa647 label, 635/667 nm fluorescence, artefact control for SMM control protein annotation, profiling panel (AID 1117); details: alpha-BTX-A647 binding fluorescence, higher = more signal
Reported Metric: composite z-score

The cases that follow already have their composite z-score on record.
# Chemical Structure, composite z-score
rows = [
    ("CN(C)CCCCCCNC(=O)[C@@H]1C[C@@H]2C(=O)N[C@@H](Cc3ccccc3)C(=O)N2[C@@H]1c1cccc(OCCO)c1", 2.64),
    ("C=CCN1Cc2ccccc2C[C@@]2(COC(c3ccc(OCCCO)cc3)=N2)C1=O", 0.34),
    ("CCCNC(=O)[C@@]1(C)c2ccccc2C(=O)N(Cc2ccc(OC(F)(F)F)cc2)[C@H]1c1ccc(CO)cc1", 0.0855),
    ("CO[C@H]1O[C@H](CO)[C@@H](OC(=O)Nc2ccc3c(c2)OCO3)[C@H](OC(=O)Nc2ccc3c(c2)OCO3)[C@H]1OC(=O)Nc1ccc2c(c1)OCO2", 0.477),
    ("C=CC[C@@]1(C(=O)OC)N=C(c2ccc(OCCCO)cc2)O[C@@H]1c1ccccc1CN=[N+]=[N-]", 0.389),
]

Supply composite z-score value. Item: O=C(CS)NCCCCCCNC(=O)[C@H]1C[C@H]2C(=O)N3CCC[C@H]3C(=O)N2[C@H]1c1ccc(O)cc1
0.927

Entry Cc1ccc(S[C@]2(C(=O)NCc3ccccc3)CC(=O)N(Cc3cc(C(F)(F)F)cc(C(F)(F)F)c3)[C@@H]2c2ccc(CO)cc2)cc1 needs its composite z-score filled in; supply it.
-0.302

* * *

Overview of recorded z-score for various molecules
experiment: ATP-based viability of Huh7 replicon cells – cell-based, CellTiter-Glo luminescence, basal, 48 h, cytotoxicity control for HCV replication inhibitor project, primary screen (AID 1143); settings: higher = more signal, called active from +8 up or from −8 down;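 note: Huh7 hepatoma cells carrying a hepatitis C replication reporter with no stimulus; test concentration not given here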
The answer should be a number; do not append a unit.

Here is how some molecules turned out for z-score.
# Chemical Structure, Reported Metric, Measured Result
rows = [
    ("C=C(CCCC)C(=O)CC[C@@H](OC(=O)c1ccccc1-c1ccccc1C(=O)O)c1ccc(CO)o1", "z-score", 0.0462),
    ("C=C(COC)C(=O)CC[C@H](OC(=O)c1cccnc1)c1ccccc1OCCO", "z-score", -2.22),
    ("O=C(NCCN1CCOCC1)[C@@H]1c2ccccc2C(=O)N(Cc2cc(F)cc(C(F)(F)F)c2)[C@H]1c1ccc(CO)cc1", "z-score", -0.269),
]

--- query ---
Please give measured z-score of the following entry: C=CC[C@@]1(C(=O)NCc2ccccc2)N=C(c2ccc(OCCCO)cc2)O[C@@H]1c1ccccc1CN=[N+]=[N-]
-3.66

* * *

assay: forskolin-driven CRE-LacZ activity in PC12 – cell-based, CRE-LacZ reporter, forskolin-stimulated, primary screen (AID 1146); conditions: luminescence, 4.5 h, higher = more signal, called active from +8 up or from −8 down;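 note: PC12 cells with 6xCRE LacZ reporter stimulated by forskolin 10 µM; beta-galactosidase reporter signal reflecting CREB driven transcription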
Response key: 1.0 means z-score >= -0.07; 0.0 means z-score < -0.07.

# Molecule, Assigned Class
data = [
    ("O=C1[C@H]2C=C(Br)[C@H](C[C@@H]2OCCOCCO)[C@@]12CO2", 1.0),
    ("C=CCC(OC(C)=O)[C@@H]1[C@@H](N(Cc2ccc(-c3ccccc3)cc2)C(=O)c2ccc(C)cc2)c2cc(OCCCO)ccc2N1C(=O)c1ccc2ccccc2n1 (stereo partly drawn)", 0.0),
    ("O=c1cccc(-c2cccc3ccccc23)o1", 1.0),
    ("O=C1OCCC=C[C@H]2OC34C=CCN(CCN5CCOCC5)C(=O)[C@H]3N(CCO)C(=O)[C@@H]4C12 (stereo partly drawn)", 1.0),
    ("Cc1ccc(S(=O)(=O)N2CC(C(=O)O)=CCC2c2ccccc2)cc1 (stereo not drawn)", 1.0),
    ("C#C[C@H](O[Si](C#CCCCCCC)(C(C)C)C(C)C)c1ccccc1", 1.0),
    ("C=CCNC(=O)[C@H]1[C@@H]2C(=O)O[C@@H](c3ccccc3)[C@@H](c3ccccc3)N2[C@@H](c2ccc(OCCO)cc2)[C@]12C(=O)N(C(=O)OCCOC)c1ccc(C#CC3(O)CCCCCC3)cc12", 1.0),
    ("NC(=O)NCC#Cc1ccc2c(c1)[C@]1(C(=O)N2)[C@H](c2ccccc2OCCO)N2[C@H](c3ccccc3)[C@H](c3ccccc3)OC(=O)[C@H]2[C@@H]1C(=O)N1CCCCCCC1", 1.0),
]

Is the recorded value of z-score equal to or greater than -0.07 for this molecule? C=CCC(OC(C)=O)[C@@H]1[C@@H](N(Cc2ccc(-c3cccc(C(F)(F)F)c3)o2)C(=O)Cc2ccc(OC)cc2)c2cc(OCCCO)ccc2N1C(=O)Cc1ccc(OC)cc1 (stereo partly drawn)
1.0

Data provenance is PubChem BioAssay.
